Molecular target: α2AAR (α2A-adrenergic receptor) (Homo sapiens, UniProt P08913)
Construct: expressed in transfected cells; host or cells: HEK293
Sequence (P08913 1-465): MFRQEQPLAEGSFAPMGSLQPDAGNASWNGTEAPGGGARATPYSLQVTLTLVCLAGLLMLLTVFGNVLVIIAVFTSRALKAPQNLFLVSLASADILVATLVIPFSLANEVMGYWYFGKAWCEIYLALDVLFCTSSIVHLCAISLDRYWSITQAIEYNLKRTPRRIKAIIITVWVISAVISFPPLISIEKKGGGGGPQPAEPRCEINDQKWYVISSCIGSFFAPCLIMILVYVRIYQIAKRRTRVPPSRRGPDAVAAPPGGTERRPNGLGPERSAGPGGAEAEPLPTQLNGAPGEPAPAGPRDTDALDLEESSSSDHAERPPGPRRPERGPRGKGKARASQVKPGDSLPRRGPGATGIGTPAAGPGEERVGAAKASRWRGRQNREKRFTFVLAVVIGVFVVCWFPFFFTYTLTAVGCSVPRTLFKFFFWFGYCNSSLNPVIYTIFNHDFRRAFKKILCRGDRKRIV
Assay: α2AAR FLIPR assay (agonist activity)
Type: cell-based
Settings: FLIPR, α2AAR cell line hosted in HEK293 cells; read-out: α2A agonist activity (EC50)
measuredProperty: EC50

Solved entries:
Cc1cccc(C(Cc2ccc(NC(=O)CC3CCCO3)cc2)c2c[nH]cn2)c1C (centres unmarked) : < 10 nM
Cc1cccc(C(c2c[nH]cn2)c2cccc(C(N)=O)c2O)c1C (centres unmarked) : 10 to 50 nM
Cc1cccc(C(Cc2cccc(NS(=O)(=O)C3CCOCC3)c2)c2c[nH]cn2)c1C (centres unmarked) : 10 to 50 nM
COP(=O)(CC1CCOCC1)Nc1cccc(C(c2c[nH]cn2)c2cccc(C)c2C)c1 (centres unmarked) : 10 to 50 nM
Cc1cccc(C(c2cccc(N)c2)c2c[nH]cn2)c1C (centres unmarked) : 50 to 250 nM
Cc1cccc(C(Cc2ccc(C(C)C(=O)O)cc2)c2c[nH]cn2)c1C (single isomer, unassigned) [174-C] : 250 to 1000 nM
Cc1cccc(C(c2cccc(C(=O)N(C)C)c2)c2c[nH]cn2)c1C (centres unmarked) : 50 to 250 nM

Next, consider the following compound.
[ask] Query: EC50; subject: Cc1cccc(C(Cc2cccc(NS(=O)(=O)CC3CCOCC3)c2)c2c[nH]cn2)c1C (single isomer, unassigned) [112-B]
[reply] 10 to 50 nM

###

Assay: in vivo
Conditions: male, C57BL/6J, mouse, po, 5 mg/kg
Counter-ions that a name gives are not always drawn.
measuredProperty: Kp uu
Form rule: numeric answer, no unit written next to it.

[ask] Can you look up the measured Kp uu of Clc1cccc(Cl)c1N=C1NCCN1 [Clonidine HCl, clonidine HCl] for me?
[reply] 0.739

###

Assay: in vitro
Details: male, C57BL/6J, mouse, plasma, pH 7.4
Counter-ions that a name gives are not always drawn.
Reported fraction unbound at 4 h, 2 μM values are given for each entry in this list.
Give a plain numeric answer without units written out.

Clc1cccc(Cl)c1N=C1NCCN1 [Clonidine HCl, clonidine HCl] : 0.708

[ask] State the recorded fraction unbound at 4 h, 2 μM for this entry: Cc1cccc([C@H](C)c2cnc[nH]2)c1C [Dexmedetomidine HCl, dexmedetomidine HCl]
[reply] 0.068
